system tested: UniProtKB P32245
assay notes: Displacement of [125I]NDP-MSH from human recombinant MC4 receptor expressed in Sf9 cells
property measured: Ki (µM)

Observe how each entry below is paired with its result.
NCCCCCN(C/C(Cl)=C\c1ccccc1)C(=O)/C=C/c1c[nH]c2ccccc12	59
NCCCN(C(=O)c1c[nH]c2ccccc12)C1CCc2ccccc2C1 (centres undefined)	74
NC1CCC(CC2CCC(N(Cc3ccccc3Br)C(=O)CCCc3c[nH]c4ccccc34)CC2)CC1 (centres undefined)	4.4

(P) NCc1ccc(CN(Cc2ccc3ccccc3c2)C(=O)CCCc2c[nH]c3ccccc23)cc1
(Q) NCCCCCCCCN(C/C=C/c1ccccc1)C(=O)CCc1c[nH]c2ccccc12
Choose between P and Q : whose measured Ki value is numerically larger? Give the chosen item's label as your response.
Q

(A) NCCCN(C/C=C/c1ccccc1)C(=O)Cc1ccc2ccccc2c1
(B) C/C(=C/c1ccccc1)CN(CCCCCN)C(=O)/C=C/c1c[nH]c2ccccc12
(C) NC1CCC(CC2CCC(N(C/C(Cl)=C/c3ccccc3)C(=O)COc3ccc4ccccc4c3)CC2)CC1 (stereo in doubt; form 3)
Order each entry by recorded Ki, climbing from the minimum. Reply with the item labels sorted in the order that was asked for.
C, A, B
(C: 3.4 µM, A: 6.4 µM, B: 99 µM)

###

system tested: Melanocortin receptor 4 (Homo sapiens, UniProt P32245)
Sequence (P32245 whole entry): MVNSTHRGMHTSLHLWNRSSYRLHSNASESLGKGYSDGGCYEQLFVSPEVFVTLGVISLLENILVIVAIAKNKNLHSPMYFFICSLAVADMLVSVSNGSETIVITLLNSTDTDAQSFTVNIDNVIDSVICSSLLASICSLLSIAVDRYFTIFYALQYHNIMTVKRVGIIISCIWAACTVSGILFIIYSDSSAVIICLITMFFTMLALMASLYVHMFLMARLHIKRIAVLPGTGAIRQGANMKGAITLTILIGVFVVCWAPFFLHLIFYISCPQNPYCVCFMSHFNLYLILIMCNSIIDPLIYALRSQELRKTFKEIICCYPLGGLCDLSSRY
assay notes: Displacement of [125I]NDP-MSH from human recombinant MC4 receptor expressed in Sf9 cells
pKi: −log10 of the molar value.
property measured: pKi

Past entries and their recorded results:
NC1CCCC(N(C/C(Cl)=C/c2ccccc2)C(=O)CCCc2c[nH]c3ccccc23)C1 (stereo not drawn)	5.68
NCC1CCC(CN(Cc2ccccc2)C(=O)CCCc2c[nH]c3ccccc23)CC1 (stereo not drawn)	5.36
Cc1cccc(CN(C(=O)CCCc2c[nH]c3ccccc23)C2CCC(CC3CCC(N)CC3)CC2)c1 (stereo not drawn)	5.52

(1) N[C@@H]1CCCC[C@H]1N(C/C=C/c1ccccc1)C(=O)CCCc1c[nH]c2ccccc12
(2) NC1CCCC(NC(=O)N[C@H]2CC[C@H](N(Cc3ccccc3)C(=O)CCCc3c[nH]c4ccccc34)CC2)C1 (stereo partly drawn)
(3) N=C(N)NC1CCC(CC2CCC(N(C/C(Cl)=C/c3ccccc3)C(=O)CCCc3c[nH]c4ccccc34)CC2)CC1 (stereo in doubt; form 1)
(4) NCCN(C(=O)Cc1ccc2ccccc2c1)C1CCc2ccccc2C1 (stereo not drawn)
(5) COC(=O)c1ccc(CN(C(=O)CCCc2c[nH]c3ccccc23)C2CCC(CC3CCC(N)CC3)CC2)cc1 (stereo not drawn)
Ranking field: pKi; order: falling. Show the ranking through the labels, in the order asked for.
5, 3, 2, 4, 1

###

system tested: Melanocortin receptor 5 (Homo sapiens)
Sequence (P33032 whole entry): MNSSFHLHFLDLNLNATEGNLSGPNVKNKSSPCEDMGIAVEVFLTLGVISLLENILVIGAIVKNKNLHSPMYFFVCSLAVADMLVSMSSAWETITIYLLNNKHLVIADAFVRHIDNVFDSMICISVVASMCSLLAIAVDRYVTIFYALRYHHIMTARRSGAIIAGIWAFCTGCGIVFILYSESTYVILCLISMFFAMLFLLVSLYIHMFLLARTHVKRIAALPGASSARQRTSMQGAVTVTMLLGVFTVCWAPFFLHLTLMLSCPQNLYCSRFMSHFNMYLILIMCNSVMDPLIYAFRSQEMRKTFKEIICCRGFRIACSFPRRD
assay notes: Displacement of [125I]NDP-MSH from human recombinant MC5 receptor expressed in Sf9 cells
property measured: Ki (µM)

NCCCN(C(=O)Cc1c[nH]c2ccccc12)C1CCc2ccccc2C1 (stereo not given)	25
NCCCCCN(Cc1ccccc1)C(=O)[C@H](N)Cc1ccc([N+](=O)[O-])cc1	102

(P) CC1CC(CC2CCC(N(Cc3ccccc3)C(=O)CCCc3c[nH]c4ccccc34)C(C)C2)CCC1N (stereo in doubt; form 3)
(Q) Cc1cccc(CN(C(=O)CCCc2c[nH]c3ccccc23)C2CCC(CC3CCC(N)CC3)CC2)c1 (stereo not given)
(R) NCCCCCN(C(=O)CCCc1c[nH]c2ccccc12)C1C2CC3CC(C2)CC1C3 (stereo not given)
Place the items in sequence of falling Ki. To answer, arrange all of the labels according to the requested order.
R, Q, P
